System: NCI-H226 lung
Experiment: NCI-60 one-dose screen, 48 h (100 = growth as untreated, 0 = no growth, -100 = all killed)
Settings: 10 µM
About 83,000 compounds went through this panel and 20% of them were active in at least one assay; those are over-represented in the sample as a whole.
If the reported growth equals or exceeds 40%, assign 1. If not, assign -1.

MOLECULE: Cc1cc(C)nc(/N=C(\N)Nc2ccc(S(=O)(=O)Nc3nc(C)cc(C)n3)cc2)n1
GROUP_LABEL: 1
--
MOLECULE: CC1(c2ccccc2)NC(=O)N(CC(=O)Nc2ccc(C(=O)/C=C/c3ccc(Br)cc3)cc2)C1=O (stereo not drawn)
GROUP_LABEL: 1
--
MOLECULE: O=c1[nH]c2ccc(Cl)cc2cc1CSc1ccc(Nc2nccc(-c3ccc4ccccc4c3)n2)cc1
GROUP_LABEL: 1
--
MOLECULE: CCCCCCCCCCCCCCCCCCCC(=O)NCCc1c[nH]c2ccc(OC(=O)NOCCOCCOCCOCCOCCOCCOCCOCCOCCOCCOCCOCCOCCOCCOCCOCCOCCOCCOCCOCCOCCOCCOC)cc12
GROUP_LABEL: -1
--
MOLECULE: COc1ccc(C(=O)/C=C/c2cc(C(F)(F)F)cc(C(F)(F)F)c2)cc1S(N)(=O)=O
GROUP_LABEL: -1
--
MOLECULE: CCN1CCN(Cc2ccc(NC(=O)c3cccc(-n4cc(-c5ccc(NC(C)=O)nc5)nn4)c3)cc2C(F)(F)F)CC1
GROUP_LABEL: 1
--
MOLECULE: CS(=O)(=O)Nc1ccc(-c2ccc3c(c2)ncn3-c2ccc(NC(=O)Nc3ccc(Cl)c(C(F)(F)F)c3)cc2)cc1
GROUP_LABEL: -1
--
MOLECULE: O=C(Nc1cc(Cl)cc(Cl)c1)Nc1cc(Cl)cc(Cl)c1
GROUP_LABEL: -1

====

Catalogue of growth readings, one per entry.
Tested on: SNB-75 CNS
Assay: NCI-60 one-dose screen, 48 h (100 = growth as untreated, 0 = no growth, -100 = all killed)
Settings: 10 µM
Compounds without any hit were thinned out: in the full panel of roughly 83,000, 20% have a hit.

COMPOUND: CN1C(=O)N(C)C2SC(N/N=C/c3ccccc3F)=NC21 (stereo not drawn)
growth, %: 91.1
//
COMPOUND: Cc1ccc(/C=C/C(=O)c2ccc(NC(=O)CSc3nnc(-c4c[nH]c5ccccc45)n3-c3ccccc3)cc2)c(C)c1
growth, %: 92.6
//
COMPOUND: O=C(Cn1cc(CSc2nnc3oc4ccccc4n23)nn1)Nc1cccc(Cl)c1
growth, %: 51
//
COMPOUND: O=C(CSc1ccc(-c2ccc(Cl)cc2)nn1)Nc1ccc(Cl)c(C(F)(F)F)c1
growth, %: 58.6
//
COMPOUND: COc1ccc(CCN2C(=O)/C(=C/c3csc(C#N)n3)SC2=S)cc1OC
growth, %: 71.7
//
COMPOUND: [2H]C([2H])([2H])Oc1ccc2ncc(C#Cc3cncc(C(=O)Nc4ccc(CN5CCN(C)CC5)c(C(F)(F)F)c4)c3)n2n1
growth, %: -66.4
//
COMPOUND: CCOc1ccc(/C=N/NC(=O)Cn2nc(Cc3ccc([N+](=O)[O-])cc3)c3onc(C)c3c2=O)cc1
growth, %: 6.05
//
COMPOUND: CCOC(=O)C1=C(N)N(c2ccc(Cl)cc2)C2=C(C(=O)CC(C)(C)C2)C1c1ccc(N2CCOCC2)cc1 (stereo not drawn)
growth, %: 109
//
COMPOUND: O=C(NCCCCCCCCCC[P+](c1ccccc1)(c1ccccc1)c1ccccc1)c1ccc(-n2nc(-c3ccccc3O)nc2-c2ccccc2O)cc1
growth, %: -27.1
//
COMPOUND: CCCCCCCCCCCCCCCCCCCC(=O)NCCc1c[nH]c2ccc(O)cc12
growth, %: 129
//
COMPOUND: O=C1NC(=NC23CC4CC(CC(C4)C2)C3)N/C1=C\c1ccc2ncsc2c1
growth, %: -44.1
//
COMPOUND: Cc1ccc(S(=O)(=O)c2nc(-c3ccccc3)oc2S(=O)(=O)CC(=O)N2CCCC2)cc1
growth, %: 14.7
//
COMPOUND: O=C(N/C(=C1/OCCN1Cc1ccccc1)[P+](c1ccccc1)(c1ccccc1)c1ccccc1)c1ccccc1
growth, %: 26.9
//
COMPOUND: Cc1ccc2nc3c(nc2c1)c1cc(I)ccc1n3CCN(C)C
growth, %: 30.6
//
COMPOUND: COc1ccc(C(=O)/C=C/c2ccc(Cl)c(C(F)(F)F)c2)cc1S(N)(=O)=O
growth, %: -33.7
//
COMPOUND: COc1ccc2ncc(C#Cc3cncc(C(=O)Nc4ccc(CN5CCN(C)CC5)c(C(F)(F)F)c4)c3)n2n1
growth, %: -91.1
//
COMPOUND: CC1(c2ccccc2)NC(=O)N(CC(=O)Nc2ccc(C(=O)/C=C/c3ccccc3)cc2)C1=O (stereo not drawn)
growth, %: 72.1
//
COMPOUND: CONC[C@]1(C)C=C2C(=O)[C@](C)(O)C3(CC3)C(C)=C2[C@H]1O
growth, %: -80.9

====

Test system: DU-145 prostate
Assay: NCI-60 one-dose screen, 48 h (100 = growth as untreated, 0 = no growth, -100 = all killed)
Conditions: 10 µM
Compounds without any hit were thinned out: in the full panel of roughly 83,000, 20% have a hit.
Labelling: growth reported below 60% becomes TRUE; at or above becomes FALSE.

MOLECULE: Oc1ccc(/C=C2\CCCc3cc4ccc(O)cc4[o+]c32)c(O)c1
GROUP_LABEL: TRUE
--
MOLECULE: CN(C(=O)c1ccc(C(C)(C)C)cc1)c1sc2c(c1C#N)CCC(=O)C2
GROUP_LABEL: FALSE
--
MOLECULE: CC(=O)NS(=O)(=O)c1ccc(NC(=O)CSC2=NC(c3ccccc3)C(C(C)=O)=C(C)N2)cc1 (stereo not drawn)
GROUP_LABEL: FALSE
--
MOLECULE: CC1=C(C(=O)OC(C)C)C(c2ccc(O)cc2)NC(=S)N1 (stereo not drawn)
GROUP_LABEL: FALSE
--
MOLECULE: C=C[C@H]1[C@H](O[C@@H]2OC(CO)[C@@H](O)[C@H](O)C2OC(=O)c2c(O)cc(O)cc2-c2cccc(O)c2)OC=C2C(=O)OCC[C@H]21 (stereo partly drawn)
GROUP_LABEL: FALSE
--
MOLECULE: O=C1NC(=NC23CC4CC(CC(C4)C2)C3)N/C1=C\c1ccc2ncsc2c1
GROUP_LABEL: TRUE
--
MOLECULE: COc1ccc(CN2[C@H](C(=O)NCCCCCCC(=O)NO)Cc3c([nH]c4ccccc34)[C@H]2C2CC2)cc1
GROUP_LABEL: TRUE
--
MOLECULE: Cn1c(O)c(N=Nc2nc(-c3cc4ccccc4oc3=O)cs2)c2cc(Br)ccc21
GROUP_LABEL: FALSE
--
MOLECULE: COC1=C[C@@]23CCC(=O)N2CCc2cc4c(cc2[C@H]3[C@H]1OC(=O)C(C)(C)O)OCO4
GROUP_LABEL: FALSE
--
MOLECULE: Nc1nc(-c2ccccc2)cc(-c2cc3ccccc3nc2Cl)n1
GROUP_LABEL: FALSE
--
MOLECULE: O=C(c1ccc(-n2c(=O)[nH]c3ccccc3c2=O)cc1)N1CCOCC1
GROUP_LABEL: FALSE
--
MOLECULE: COc1cccc(/C=C2\N=C(C)N(CCc3ccc(S(N)(=O)=O)cc3)C2=O)c1
GROUP_LABEL: FALSE
--
MOLECULE: C=CC(=O)Nc1ccc(C(=O)/C=C/c2ccc(N(C)CCF)cc2)c(O)c1
GROUP_LABEL: TRUE
--
MOLECULE: Cc1cc2nc3c4ccccc4n(CCO)c3nc2cc1C
GROUP_LABEL: TRUE
--
MOLECULE: CC(=O)Nc1ccc(-c2cn(-c3cccc(C(=O)Nc4cc(CN5CCOCC5)cc(C(F)(F)F)c4)c3)nn2)cn1
GROUP_LABEL: TRUE
--
MOLECULE: COc1ccc(N(C)c2cc(C#N)nc3ccccc23)cc1/C=C/C(=O)NO
GROUP_LABEL: TRUE
--
MOLECULE: CN(CCO)c1oc(-c2ccccc2)nc1[P+](c1ccccc1)(c1ccccc1)c1ccccc1
GROUP_LABEL: TRUE
--
MOLECULE: COc1cc2c(cc1OC)CN(CCCCOc1cc(O)c3c(=O)cc(-c4ccccc4)oc3c1)CC2
GROUP_LABEL: FALSE
--
MOLECULE: O=C(Nc1cc(Cl)cc(Cl)c1)Nc1cc(Cl)cc(Cl)c1
GROUP_LABEL: TRUE
--
MOLECULE: COc1ccsc1/C=N/NC(=O)c1[nH]c2ccc(Br)cc2c1-c1ccccc1
GROUP_LABEL: TRUE
--
MOLECULE: COc1ccc(CN2[C@H](C(=O)NCc3ccc(C(=O)NO)cc3)Cc3c([nH]c4ccccc34)[C@H]2C2CC2)cc1
GROUP_LABEL: TRUE
--
MOLECULE: C=C(C)[C@@H]1CC[C@]2(C)[C@H](CC=C3[C@@H]4CC(C)(C)CC[C@]4(C(=O)N4CCOCC4)CC[C@]32C)[C@@]1(C)CCCN
GROUP_LABEL: TRUE
--
MOLECULE: Cc1ccc(C(C)C)cc1NC(=O)c1ccccc1O
GROUP_LABEL: FALSE
--
MOLECULE: Cc1ccc(S(=O)(=O)c2nc(-c3ccccc3)oc2S(=O)(=O)CC(=O)N2CCCC2)cc1
GROUP_LABEL: TRUE
--
MOLECULE: N#Cc1c(NC(=O)c2cccc(C(F)(F)F)c2)sc2c1CCC(O)=C2
GROUP_LABEL: TRUE
--
MOLECULE: Cc1ccc(C(=O)Nc2ccc(-n3c(C)nc4c(cnn4-c4ccccc4)c3=O)cc2)cc1
GROUP_LABEL: FALSE
--
MOLECULE: CC(C)CCSc1nc(NC2CC2)c(C#N)c(-c2ccc(C(C)C)cc2)n1
GROUP_LABEL: FALSE
--
MOLECULE: CC1CC(c2ccc(N(C)C)cc2)=NN1c1nc(O)c(C2=c3cc(Br)ccc3=NC2=O)s1 (stereo not drawn)
GROUP_LABEL: FALSE
--
MOLECULE: COc1ccc(N2N=C(c3ccc4c(c3)OCCO4)CC2c2cccc(NC(=O)CCCNS(=O)(=O)c3ccc(F)cc3)c2)cc1 (stereo not drawn)
GROUP_LABEL: FALSE
--
MOLECULE: COc1ccc(-c2nc(Nc3ccccc3S(N)(=O)=O)c3ccccc3n2)cc1
GROUP_LABEL: TRUE
--
MOLECULE: CN1C(=O)N(C)C2SC(N/N=C/c3ccc(F)cc3)=NC21 (stereo not drawn)
GROUP_LABEL: FALSE
--
MOLECULE: O=C1Nc2ccc(Cl)cc2/C1=C/c1cccc(OCc2ccccc2)c1
GROUP_LABEL: TRUE
--
MOLECULE: COc1cc(NC(=O)c2cc(-c3ccc(F)cc3F)ccc2O)cc(OC)c1OC
GROUP_LABEL: TRUE
--
MOLECULE: CCOC(=O)C1=C(N)N(c2ccc(C)cc2)C2=C(C(=O)CC(C)(C)C2)C1c1ccccc1OC (stereo not drawn)
GROUP_LABEL: FALSE
--
MOLECULE: CC(C)C(=O)Nc1ccc(C(=O)NC(=S)Nc2ccc(C(=O)O)cc2)cc1
GROUP_LABEL: FALSE
--
MOLECULE: CS(=O)(=O)Nc1ccc(-c2ccc3c(c2)ncn3-c2ccc(NC(=O)Nc3ccc(Br)cc3)cc2)cc1
GROUP_LABEL: TRUE
--
MOLECULE: N#C/C(=C\c1ccc(N(c2ccccc2)c2ccccc2)cc1)C(N)=O
GROUP_LABEL: FALSE

These data points were gathered from PubChem BioAssay (NCI).
